Every entry's value here was drawn from patent US20250205259A1.

Target: NDM-5 (Klebsiella pneumoniae, UniProt C7C422, M154L/V88L)
Sequence (C7C422 29-270 V88L/M154L): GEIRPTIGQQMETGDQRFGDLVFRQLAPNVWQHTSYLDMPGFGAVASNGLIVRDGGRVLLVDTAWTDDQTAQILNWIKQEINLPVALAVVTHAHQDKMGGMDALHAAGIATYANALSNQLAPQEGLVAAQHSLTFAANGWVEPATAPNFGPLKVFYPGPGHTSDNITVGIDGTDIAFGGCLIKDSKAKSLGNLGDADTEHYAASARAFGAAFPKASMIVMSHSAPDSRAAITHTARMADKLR
Experiment: Inhibitory activity on MBL, fluorescent substrate FC-5
Assay type: biochemical
Details: unit inferred; read-out: NDM-5, number in parentheses under the class symbol
readout: IC50

>>> testresult("O=C(O)c1c(CNc2nncs2)ccc2c1OB(O)CC2 [Comparative example 1 compound 64, reference compound]")
"3.23 µM"

---

Molecular target: IMP-1 (Serratia marcescens)
Sequence (P52699 19-246 limits assumed): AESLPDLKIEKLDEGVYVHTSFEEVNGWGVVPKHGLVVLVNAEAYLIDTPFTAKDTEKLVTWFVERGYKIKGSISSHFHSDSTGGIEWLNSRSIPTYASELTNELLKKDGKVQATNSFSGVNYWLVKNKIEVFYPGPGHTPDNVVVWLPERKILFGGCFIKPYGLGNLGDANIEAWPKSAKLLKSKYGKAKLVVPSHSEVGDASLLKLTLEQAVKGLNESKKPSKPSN
Assay: Inhibitory activity on MBL, fluorescent substrate FC-5
Assay type: biochemical
Conditions: read-out: Inhibitory activity on MBL IMP-1 (IC50 class)
Items are presented alongside their recorded IC50.
readout: IC50

>>> testresult("NC(=O)[C@@H]1CC[C@@H]2CN1C(=O)N2OS(=O)(=O)O [Avibactam, reference compound]")
"> 100 µM"
>>> testresult("O=C(O)c1c(Cn2cc3c(n2)CNC3)ccc2c1OB(O)[C@@H]1C[C@H]21")
"1 to 100 µM"
>>> testresult("O=C(O)c1c(CNc2nncs2)ccc2c1OB(O)CC2 [Comparative example 1 compound 64, reference compound]")
"> 100 µM"
>>> testresult("O=C(O)c1c(Cn2nccn2)ccc2c1OB(O)CC2")
"1 to 100 µM"
>>> testresult("C[C@]1(Cn2ccnn2)[C@H](C(=O)O)N2C(=O)C[C@H]2S1(=O)=O [Tazobactam, reference compound]")
"> 100 µM"
>>> testresult("O=C(O)c1c(Cn2cc([N+](=O)[O-])cn2)ccc2c1OB(O)CC2")
"1 to 100 µM"
>>> testresult("O=C(O)c1c(Cn2ccc3cncnc32)ccc2c1OB(O)CC2")
"0.01 to 1 µM"
>>> testresult("N#Cc1cccn1Cc1ccc2c(c1C(=O)O)OB(O)CC2")
"1 to 100 µM"

---

Target: CTX-M-14 (Escherichia coli)
Assay: Inhibitory activity on SBL, fluorescent substrate FC-5
Assay type: biochemical
Details: comparison in words
readout: inhibitory activity on CTX-M-14 compared to avibactam

>>> testresult("NC(=O)c1cnn(Cc2ccc3c(c2C(=O)O)OB(O)CC3)c1")
"better or comparable"
>>> testresult("Nc1ncc(-c2cn(Cc3ccc4c(c3C(=O)O)OB(O)CC4)nn2)cn1")
"better or comparable"
>>> testresult("NCCN1Cc2cn(Cc3ccc4c(c3C(=O)O)OB(O)CC4)nc2C1")
"better or comparable"

---

Target: NDM-5 (Klebsiella pneumoniae, UniProt C7C422, M154L/V88L)
Test: Inhibitory activity on MBL, fluorescent substrate FC-5
Assay type: biochemical
Conditions: inhibitory activity at a nanomolar-level on NDM-5
pIC50: −log10 of the molar value.
readout: pIC50

>>> testresult("NS(=O)(=O)Nc1cnn(Cc2ccc3c(c2C(=O)O)OB(O)CC3)c1")
"> 6.00"

---

Measured pIC50 accompanies every entry in the list below.
Molecular target: UniProtKB P52699
Assay: Inhibitory activity on MBL, fluorescent substrate FC-5
Type: biochemical
Conditions: read-out: Inhibitory activity on MBL IMP-1 (IC50 class)
pIC50: −log10 of the molar value.
readout: pIC50

>>> testresult("CN1Cc2cn(Cc3ccc4c(c3C(=O)O)OB(O)CC4)nc2C1")
"6.00 to 8.00"
>>> testresult("NS(=O)(=O)N1Cc2cn(Cc3ccc4c(c3C(=O)O)OB(O)CC4)nc2C1")
"4.00 to 6.00"
>>> testresult("Nc1ncc(-c2cn(Cc3ccc4c(c3C(=O)O)OB(O)CC4)nn2)cn1")
"6.00 to 8.00"
>>> testresult("NCCc1cn(Cc2ccc3c(c2C(=O)O)OB(O)CC3)nn1")
"4.00 to 6.00"
>>> testresult("O=C(O)c1c(Cn2cc(F)cn2)ccc2c1OB(O)CC2")
"4.00 to 6.00"
>>> testresult("NS(=O)(=O)NCc1cnn(Cc2ccc3c(c2C(=O)O)OB(O)CC3)c1")
"4.00 to 6.00"
>>> testresult("O=C(O)c1c(Cn2cc(C3CNC3)nn2)ccc2c1OB(O)CC2")
"4.00 to 6.00"
>>> testresult("NS(=O)(=O)Nc1cnn(Cc2ccc3c(c2C(=O)O)OB(O)CC3)c1")
"4.00 to 6.00"
>>> testresult("C[n+]1ccn(Cc2ccc3c(c2C(=O)O)OB(O)CC3)n1")
"4.00 to 6.00"

---

Target: CTX-M-14 (Escherichia coli, UniProt Q9L5C7)
Test: Inhibitory activity on SBL, fluorescent substrate FC-5
Type: biochemical
Details: read-out: Inhibitory activity on SBL CTX-M-14 (IC50 class)
pIC50: −log10 of the molar value.
This listing pairs molecules with measured pIC50.
readout: pIC50

>>> testresult("NC1(c2cn(Cc3ccc4c(c3C(=O)O)OB(O)CC4)nn2)CC1")
"6.00 to 8.00"
>>> testresult("O=C(O)c1c(Cn2cc(-c3ccccc3)nn2)ccc2c1OB(O)CC2")
"6.00 to 8.00"
>>> testresult("NS(=O)(=O)N1Cc2cn(Cc3ccc4c(c3C(=O)O)OB(O)CC4)nc2C1")
"> 8.00"
>>> testresult("O=C(O)c1c(CNc2nncs2)ccc2c1OB(O)CC2 [Comparative example 1 compound 64, reference compound]")
"6.00 to 8.00"
>>> testresult("N#Cc1cccn1Cc1ccc2c(c1C(=O)O)OB(O)CC2")
"6.00 to 8.00"
>>> testresult("O=C(O)c1c(Cn2ncc3ccccc32)ccc2c1OB(O)CC2")
"6.00 to 8.00"
>>> testresult("N=C(N)Nc1cnn(Cc2ccc3c(c2C(=O)O)OB(O)CC3)c1")
"6.00 to 8.00"
>>> testresult("O=C(O)c1c(CN2C[C@H](O)CC2=O)ccc2c1OB(O)CC2")
"6.00 to 8.00"
>>> testresult("Cc1nccn1Cc1ccc2c(c1C(=O)O)OB(O)CC2")
"6.00 to 8.00"
>>> testresult("NCc1cnn(Cc2ccc3c(c2C(=O)O)OB(O)[C@@H](Sc2nncs2)C3)c1")
"4.00 to 6.00"
>>> testresult("N=C(N)N1CC(c2cn(Cc3ccc4c(c3C(=O)O)OB(O)CC4)nn2)C1")
"6.00 to 8.00"
>>> testresult("O=C(O)c1c(Cn2cncn2)ccc2c1OB(O)CC2")
"> 8.00"
>>> testresult("C[n+]1ccn(Cc2ccc3c(c2C(=O)O)OB(O)CC3)n1")
"6.00 to 8.00"
>>> testresult("O=C(O)c1c(Cn2cc([N+](=O)[O-])cn2)ccc2c1OB(O)CC2")
"6.00 to 8.00"
>>> testresult("Nc1ncc(-c2cn(Cc3ccc4c(c3C(=O)O)OB(O)CC4)nn2)cn1")
"6.00 to 8.00"
>>> testresult("NCCCc1cn(Cc2ccc3c(c2C(=O)O)OB(O)CC3)nn1")
"6.00 to 8.00"
>>> testresult("O=C(O)c1c(Cn2cc3c(n2)CNC3)ccc2c1OB(O)[C@@H]1C[C@H]21")
"6.00 to 8.00"
>>> testresult("O=C(O)c1c(Cn2cc(C3CNC3)nn2)ccc2c1OB(O)CC2")
"6.00 to 8.00"
>>> testresult("N=C(N)NCc1cnn(Cc2ccc3c(c2C(=O)O)OB(O)CC3)c1")
"> 8.00"
>>> testresult("N=C(N)NCCc1cn(Cc2ccc3c(c2C(=O)O)OB(O)CC3)nn1")
"6.00 to 8.00"
>>> testresult("O=C(O)c1c(CN2CC=CC2)ccc2c1OB(O)CC2")
"6.00 to 8.00"
>>> testresult("NC(=O)N1Cc2cn(Cc3ccc4c(c3C(=O)O)OB(O)CC4)nc2C1")
"6.00 to 8.00"
>>> testresult("NCc1cn(Cc2ccc3c(c2C(=O)O)OB(O)CC3)nn1")
"6.00 to 8.00"
>>> testresult("O=C(O)c1c(Cn2ccnc2)ccc2c1OB(O)CC2")
"6.00 to 8.00"
>>> testresult("O=C(O)c1c(Cn2cc3c(n2)CNC3)ccc2c1OB(O)C=C2")
"4.00 to 6.00"
>>> testresult("O=C(O)c1c(Cn2nccn2)ccc2c1OB(O)CC2")
"6.00 to 8.00"
>>> testresult("NS(=O)(=O)Nc1cnn(Cc2ccc3c(c2C(=O)O)OB(O)CC3)c1")
"> 8.00"
>>> testresult("NC1(c2cnn(Cc3ccc4c(c3C(=O)O)OB(O)CC4)c2)CC1")
"6.00 to 8.00"
>>> testresult("NCCNc1cnn(Cc2ccc3c(c2C(=O)O)OB(O)CC3)c1")
"6.00 to 8.00"
>>> testresult("NC(=O)c1cnn(Cc2ccc3c(c2C(=O)O)OB(O)CC3)c1")
"6.00 to 8.00"
>>> testresult("NC(=O)c1ccn(Cc2ccc3c(c2C(=O)O)OB(O)CC3)n1")
"6.00 to 8.00"

---

Listing: IC50 of selected compounds
Target: KPC-2 (Klebsiella pneumoniae, UniProt Q9F663)
Sequence (Q9F663 25-293 limits assumed): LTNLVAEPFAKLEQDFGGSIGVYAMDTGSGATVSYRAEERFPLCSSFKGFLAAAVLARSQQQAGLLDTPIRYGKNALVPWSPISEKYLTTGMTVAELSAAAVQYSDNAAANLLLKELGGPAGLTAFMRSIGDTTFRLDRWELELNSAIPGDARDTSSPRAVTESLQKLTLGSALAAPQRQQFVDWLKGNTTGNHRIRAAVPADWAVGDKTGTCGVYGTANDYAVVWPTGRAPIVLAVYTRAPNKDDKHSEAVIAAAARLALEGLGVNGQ
Test: Inhibitory activity on SBL, fluorescent substrate FC-5
Format: biochemical
Details: read-out: Inhibitory activity on SBL KPC-2 (IC50 class)
readout: IC50

>>> testresult("N#CCCCc1cn(Cc2ccc3c(c2C(=O)O)OB(O)CC3)nn1 [Compound 6]")
"< 10 nM"
>>> testresult("CN1Cc2cn(Cc3ccc4c(c3C(=O)O)OB(O)CC4)nc2C1 [Compound 74]")
"< 10 nM"
>>> testresult("O=C(O)c1c(Cn2cc3c(n2)CNC3)ccc2c1OB(O)CC2 [Compound 56-Na]")
"< 10 nM"
>>> testresult("NC1(c2cn(Cc3ccc4c(c3C(=O)O)OB(O)CC4)nn2)CC1 [Compound 41]")
"< 10 nM"
>>> testresult("Nc1ncc(-c2cn(Cc3ccc4c(c3C(=O)O)OB(O)CC4)nn2)cn1 [Compound 61]")
"< 10 nM"
>>> testresult("NCc1cn(Cc2ccc3c(c2C(=O)O)OB(O)CC3)nn1 [Compound 7]")
"10 to 1000 nM"
>>> testresult("Nc1ccc(-c2cn(Cc3ccc4c(c3C(=O)O)OB(O)CC4)nn2)cc1 [Compound 59]")
"< 10 nM"
>>> testresult("O=C(O)c1c(Cn2ccnc2)ccc2c1OB(O)CC2 [Compound 23]")
"< 10 nM"
>>> testresult("N=C(N)N1Cc2cnn(Cc3ccc4c(c3C(=O)O)OB(O)CC4)c2C1 [Compound 67]")
"< 10 nM"
>>> testresult("O=C(O)c1c(Cn2cc3c(n2)CNC3)ccc2c1OB(O)[C@@H]1C[C@H]21 [Compound 53]")
"< 10 nM"
>>> testresult("NCc1ccc(-c2cn(Cc3ccc4c(c3C(=O)O)OB(O)CC4)nn2)cc1 [Compound 63]")
"< 10 nM"
>>> testresult("NCc1ccn(Cc2ccc3c(c2C(=O)O)OB(O)CC3)n1 [Compound 42]")
"< 10 nM"
>>> testresult("O=C(O)c1c(Cn2cccn2)ccc2c1OB(O)CC2 [Compound 14]")
"< 10 nM"
>>> testresult("O=C(O)c1c(Cn2ccnn2)ccc2c1OB(O)C1CC21 (centres unmarked) [Compound 28]")
"< 10 nM"
>>> testresult("O=C(O)c1c(Cn2nccn2)ccc2c1OB(O)CC2 [Compound 1]")
"< 10 nM"
>>> testresult("NC1(c2cnn(Cc3ccc4c(c3C(=O)O)OB(O)CC4)c2)CC1 [Compound 40]")
"< 10 nM"
>>> testresult("Nc1cnn(Cc2ccc3c(c2C(=O)O)OB(O)CC3)c1 [Compound 32]")
"< 10 nM"
>>> testresult("NC1CCC(c2cn(Cc3ccc4c(c3C(=O)O)OB(O)CC4)nn2)CC1 (centres unmarked) [Compound 11]")
"< 10 nM"
>>> testresult("O=C(O)c1c(CN2CC=CC2)ccc2c1OB(O)CC2 [Compound 26]")
"< 10 nM"
>>> testresult("O=C(O)c1c(CNc2nncs2)ccc2c1OB(O)CC2 [Comparative example 1 compound 64, reference compound]")
"10 to 1000 nM"
>>> testresult("O=C(O)c1c(Cn2cc(C3CNC3)nn2)ccc2c1OB(O)CC2 [Compound 47]")
"10 to 1000 nM"
>>> testresult("O=C(O)c1c(Cn2cc(F)cn2)ccc2c1OB(O)CC2 [Compound 15]")
"< 10 nM"
>>> testresult("O=C(O)c1c(Cn2cc3c(n2)CNC3)ccc2c1OB(O)C=C2 [Compound 52]")
"1000 to 100000 nM"
>>> testresult("N#Cc1cccn1Cc1ccc2c(c1C(=O)O)OB(O)CC2 [Compound 25]")
"< 10 nM"
>>> testresult("O=C(O)c1c(Cn2ncc3c2CNC3)ccc2c1OB(O)CC2 [Compound 66]")
"< 10 nM"
>>> testresult("N#Cc1ccn(Cc2ccc3c(c2C(=O)O)OB(O)CC3)c1 [Compound 71]")
"< 10 nM"
>>> testresult("O=C(O)c1c(Cn2ccc3cncnc32)ccc2c1OB(O)CC2 [Compound 55]")
"< 10 nM"
>>> testresult("Nc1ccc(-c2cn(Cc3ccc4c(c3C(=O)O)OB(O)CC4)nn2)cn1 [Compound 60]")
"< 10 nM"
>>> testresult("NCCNCc1cnn(Cc2ccc3c(c2C(=O)O)OB(O)CC3)c1 [Compound 35]")
"10 to 1000 nM"
>>> testresult("NC(=O)c1cnn(Cc2ccc3c(c2C(=O)O)OB(O)CC3)c1 [Compound 19]")
"< 10 nM"
>>> testresult("NS(=O)(=O)NCCc1cn(Cc2ccc3c(c2C(=O)O)OB(O)CC3)nn1 [Compound 51]")
"< 10 nM"
>>> testresult("CC(N)c1cnn(Cc2ccc3c(c2C(=O)O)OB(O)CC3)c1 (centres unmarked) [Compound 39]")
"< 10 nM"
>>> testresult("O=C(O)c1c(Cn2cc3c(n2)CNC3)ccc2c1OB(O)CC2 [Compound 56]")
"< 10 nM"
>>> testresult("N=C(N)NCCc1cnn(Cc2ccc3c(c2C(=O)O)OB(O)CC3)c1 [Compound 50]")
"< 10 nM"
>>> testresult("C[n+]1ccn(Cc2ccc3c(c2C(=O)O)OB(O)CC3)n1 [Compound 3]")
"< 10 nM"
>>> testresult("NC1CN(Cc2cnn(Cc3ccc4c(c3C(=O)O)OB(O)CC4)c2)C1 [Compound 75]")
"10 to 1000 nM"
>>> testresult("NS(=O)(=O)Nc1cnn(Cc2ccc3c(c2C(=O)O)OB(O)CC3)c1 [Compound 34]")
"< 10 nM"
>>> testresult("O=C(O)c1c(Cn2cc(C(F)(F)F)cn2)ccc2c1OB(O)CC2 [Compound 16]")
"< 10 nM"
